This collection of values is drawn from patent US20090118184A1.

Factor VIIIa decay rate relative to wild type, FIXa (+) for assorted binders
Molecular target: T1, factor VIIIa A1/A3C1C2 dimer, wild type (human, UniProt P00451 20-391; P00451 1709-2351)
T1 sequence 1: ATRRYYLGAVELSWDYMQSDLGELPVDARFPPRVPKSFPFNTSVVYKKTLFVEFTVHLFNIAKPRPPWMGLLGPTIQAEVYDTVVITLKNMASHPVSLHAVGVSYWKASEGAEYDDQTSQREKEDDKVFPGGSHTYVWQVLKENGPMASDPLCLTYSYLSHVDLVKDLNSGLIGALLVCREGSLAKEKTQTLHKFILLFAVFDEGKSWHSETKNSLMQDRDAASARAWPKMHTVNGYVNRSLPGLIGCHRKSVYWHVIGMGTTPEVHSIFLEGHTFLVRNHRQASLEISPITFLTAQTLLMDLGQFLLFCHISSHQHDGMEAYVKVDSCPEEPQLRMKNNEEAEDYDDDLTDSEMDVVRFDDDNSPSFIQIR
T1 sequence 2: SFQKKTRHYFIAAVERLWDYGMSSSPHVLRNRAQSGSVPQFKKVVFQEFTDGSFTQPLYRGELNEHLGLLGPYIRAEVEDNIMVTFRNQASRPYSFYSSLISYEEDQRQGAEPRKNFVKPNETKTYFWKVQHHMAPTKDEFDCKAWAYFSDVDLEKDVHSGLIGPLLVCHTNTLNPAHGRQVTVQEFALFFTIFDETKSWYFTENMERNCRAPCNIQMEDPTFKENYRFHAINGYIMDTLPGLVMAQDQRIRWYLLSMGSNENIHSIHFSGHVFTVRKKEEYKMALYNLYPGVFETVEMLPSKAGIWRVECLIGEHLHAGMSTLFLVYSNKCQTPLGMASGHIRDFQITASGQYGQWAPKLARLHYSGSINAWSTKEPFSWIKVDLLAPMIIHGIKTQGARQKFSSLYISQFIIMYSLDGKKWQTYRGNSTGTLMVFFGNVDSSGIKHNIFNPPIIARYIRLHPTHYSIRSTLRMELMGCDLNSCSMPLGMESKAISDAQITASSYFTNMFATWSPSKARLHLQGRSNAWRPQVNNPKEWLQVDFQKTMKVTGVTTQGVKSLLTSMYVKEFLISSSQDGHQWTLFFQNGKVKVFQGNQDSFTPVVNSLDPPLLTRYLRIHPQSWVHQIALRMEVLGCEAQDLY
Assay: cell-based or functional assay

Please review the following examples before continuing.
BINDER | TEST_RESULT
factor VIIIa A2 subunit, D696A (other) SVAKKHPKTWVHYIAAEEEDWDYAPLVLAPDDRSYKSQYLNNGPQRIGRKYKKVRFMAYTDETFKTREAIQHESGILGPLLYGEVGDTLLIIFKNQASRPYNIYPHGITDVRPLYSRRLPKGVKHLKDFPILPGEIFKYKWTVTVEDGPTKSDPRCLTRYYSSFVNMERDLASGLIGPLLICYKESVDQRGNQIMSDKRNVILFSVFDENRSWYLTENIQRFLPNPAGVQLEDPEFQASNIMHSINGYVFDSLQLSVCLHEVAYWYILSIGAQTDFLSVFFSGYTFKHKMVYEDTLTLFPFSGETVFMSMENPGLWILGCHNSAFRNRGMTALLKVSSCDKNTGDYYEDSYEDISAYLLSKNNAIEPR | 1.05 relative to wild type
factor VIIIa A2 subunit, S650A (other) SVAKKHPKTWVHYIAAEEEDWDYAPLVLAPDDRSYKSQYLNNGPQRIGRKYKKVRFMAYTDETFKTREAIQHESGILGPLLYGEVGDTLLIIFKNQASRPYNIYPHGITDVRPLYSRRLPKGVKHLKDFPILPGEIFKYKWTVTVEDGPTKSDPRCLTRYYSSFVNMERDLASGLIGPLLICYKESVDQRGNQIMSDKRNVILFSVFDENRSWYLTENIQRFLPNPAGVQLEDPEFQASNIMHSINGYVFDSLQLSVCLHEVAYWYILSIGAQTDFLAVFFSGYTFKHKMVYEDTLTLFPFSGETVFMSMENPGLWILGCHNSDFRNRGMTALLKVSSCDKNTGDYYEDSYEDISAYLLSKNNAIEPR | 2.81 relative to wild type
factor VIIIa A2 subunit, T522A (other) SVAKKHPKTWVHYIAAEEEDWDYAPLVLAPDDRSYKSQYLNNGPQRIGRKYKKVRFMAYTDETFKTREAIQHESGILGPLLYGEVGDTLLIIFKNQASRPYNIYPHGITDVRPLYSRRLPKGVKHLKDFPILPGEIFKYKWTVTVEDGPAKSDPRCLTRYYSSFVNMERDLASGLIGPLLICYKESVDQRGNQIMSDKRNVILFSVFDENRSWYLTENIQRFLPNPAGVQLEDPEFQASNIMHSINGYVFDSLQLSVCLHEVAYWYILSIGAQTDFLSVFFSGYTFKHKMVYEDTLTLFPFSGETVFMSMENPGLWILGCHNSDFRNRGMTALLKVSSCDKNTGDYYEDSYEDISAYLLSKNNAIEPR | 2.39 relative to wild type

Request: # input binder: factor VIIIa A2 subunit, E540A (other) SVAKKHPKTWVHYIAAEEEDWDYAPLVLAPDDRSYKSQYLNNGPQRIGRKYKKVRFMAYTDETFKTREAIQHESGILGPLLYGEVGDTLLIIFKNQASRPYNIYPHGITDVRPLYSRRLPKGVKHLKDFPILPGEIFKYKWTVTVEDGPTKSDPRCLTRYYSSFVNMARDLASGLIGPLLICYKESVDQRGNQIMSDKRNVILFSVFDENRSWYLTENIQRFLPNPAGVQLEDPEFQASNIMHSINGYVFDSLQLSVCLHEVAYWYILSIGAQTDFLSVFFSGYTFKHKMVYEDTLTLFPFSGETVFMSMENPGLWILGCHNSDFRNRGMTALLKVSSCDKNTGDYYEDSYEDISAYLLSKNNAIEPR ; wanted: its Factor VIIIa decay rate relative to wild type, FIXa (+)
Response: 0.81 relative to wild type
